Reported residual activity values for a set of compounds
target: CDK2 CCNA2 (human) (UniProt P24941+P20248); experiment: radiometric filter-binding kinase assay, Kinase HotSpot; conditions: compound 0.5 µM; ATP 10 µM
Sequence (P20248 whole entry, looked up, other chains not shown): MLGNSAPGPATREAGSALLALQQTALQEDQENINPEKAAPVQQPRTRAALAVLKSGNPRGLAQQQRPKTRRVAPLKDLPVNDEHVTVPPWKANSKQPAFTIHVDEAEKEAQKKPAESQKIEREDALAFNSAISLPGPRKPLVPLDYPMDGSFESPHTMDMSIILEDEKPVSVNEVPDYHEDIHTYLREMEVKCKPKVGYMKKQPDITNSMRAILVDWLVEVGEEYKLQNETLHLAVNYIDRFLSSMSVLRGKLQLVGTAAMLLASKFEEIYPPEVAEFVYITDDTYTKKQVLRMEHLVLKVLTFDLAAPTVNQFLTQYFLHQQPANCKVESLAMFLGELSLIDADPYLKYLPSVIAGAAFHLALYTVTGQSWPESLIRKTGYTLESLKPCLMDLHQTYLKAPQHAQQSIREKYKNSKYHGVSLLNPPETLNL

>  <Structure>
COc1cccc(-c2cc(=O)c3ccccc3o2)c1N

>  <residual activity (%)>
102

$$$$
>  <Structure>
O=c1c2ccccc2[nH]c(=S)n1CCN1CCC(=C(c2ccc(F)cc2)c2ccc(F)cc2)CC1

>  <residual activity (%)>
99.9

$$$$
>  <Structure>
O=C1NC(=O)c2cc(Nc3ccc(F)cc3)c(Nc3ccc(F)cc3)cc21

>  <residual activity (%)>
95.3

$$$$
>  <Structure>
Cn1cc(/C=C2\C(=O)Nc3ccc(S(N)(=O)=O)cc32)c2ccccc21

>  <residual activity (%)>
66.2

$$$$
>  <Structure>
CC(C)(C)n1nc(Cc2cccc3ccccc23)c2c(N)ncnc21

>  <residual activity (%)>
99.4

$$$$

###

target: SIK2 (human); experiment: radiometric filter-binding kinase assay, Kinase HotSpot; conditions: compound 0.5 µM; ATP 10 µM
Tick satisfied if residual activity is 90% or greater. Tick not satisfied if residual activity is less than 90%.

>  <Structure>
CCCCc1c(-c2ccc(O)cc2)[nH]c2nccnc12

>  <Assigned category>
satisfied

$$$$
>  <Structure>
O=C1NC(=O)c2c1c1c3ccccc3[nH]c1c1[nH]c3cc(Br)ccc3c21

>  <Assigned category>
not satisfied

$$$$
>  <Structure>
N#CCCc1ccc2c(c1)-c1[nH]c3ccc([N+](=O)[O-])cc3c1CC(=O)N2

>  <Assigned category>
not satisfied

$$$$
>  <Structure>
c1ccc(-c2cnc(Nc3ccc(OCCN4CCCC4)cc3)s2)cc1

>  <Assigned category>
not satisfied

$$$$
>  <Structure>
N#C/C(=C1/Nc2ccccc2S1)c1ccnc(NCCc2cccnc2)n1

>  <Assigned category>
satisfied

$$$$

###

Here, each record is paired with measured residual activity data.
target: UniProtKB Q7L7X3; assay: radiometric filter-binding kinase assay, Kinase HotSpot; conditions: compound 0.5 µM; ATP 10 µM
Sequence (Q7L7X3 whole entry, looked up): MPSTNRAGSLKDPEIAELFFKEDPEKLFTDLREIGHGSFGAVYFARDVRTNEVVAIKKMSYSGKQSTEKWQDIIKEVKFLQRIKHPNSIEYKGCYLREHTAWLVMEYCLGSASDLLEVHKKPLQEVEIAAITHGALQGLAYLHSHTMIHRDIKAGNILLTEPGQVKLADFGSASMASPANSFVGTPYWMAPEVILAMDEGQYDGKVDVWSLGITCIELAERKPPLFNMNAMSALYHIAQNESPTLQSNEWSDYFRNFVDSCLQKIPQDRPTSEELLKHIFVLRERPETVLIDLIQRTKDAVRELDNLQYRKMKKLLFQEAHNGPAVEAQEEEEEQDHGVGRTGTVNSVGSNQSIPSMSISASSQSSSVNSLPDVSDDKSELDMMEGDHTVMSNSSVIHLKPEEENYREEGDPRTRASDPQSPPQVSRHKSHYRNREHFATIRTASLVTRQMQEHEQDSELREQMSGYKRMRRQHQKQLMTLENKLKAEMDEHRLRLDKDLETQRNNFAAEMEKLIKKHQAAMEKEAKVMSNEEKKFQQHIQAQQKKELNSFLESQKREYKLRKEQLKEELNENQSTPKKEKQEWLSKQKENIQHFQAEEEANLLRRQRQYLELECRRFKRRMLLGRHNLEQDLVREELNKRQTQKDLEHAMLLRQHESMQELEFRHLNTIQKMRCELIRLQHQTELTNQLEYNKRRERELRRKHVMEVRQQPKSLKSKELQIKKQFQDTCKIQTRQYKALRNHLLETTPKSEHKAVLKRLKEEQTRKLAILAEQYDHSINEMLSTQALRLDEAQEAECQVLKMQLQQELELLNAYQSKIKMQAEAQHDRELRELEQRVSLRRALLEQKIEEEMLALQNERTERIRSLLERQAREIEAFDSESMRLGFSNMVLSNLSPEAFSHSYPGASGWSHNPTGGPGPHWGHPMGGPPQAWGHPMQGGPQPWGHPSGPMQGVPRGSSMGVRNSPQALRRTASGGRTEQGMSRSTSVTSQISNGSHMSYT

>  <Structure>
O=S(=O)(NCCNC/C=C/c1ccc(Br)cc1)c1cccc2cnccc12

>  <residual activity>
101%

$$$$
>  <Structure>
N/C(=N\N=C/c1ccc(-c2cccc([N+](=O)[O-])c2)o1)N[N+](=O)[O-]

>  <residual activity>
89.6%

$$$$
>  <Structure>
O=C(c1ccccc1)c1ccc(N2CCOCC2)cc1O

>  <residual activity>
100%

$$$$
>  <Structure>
O=c1cc(N2CCOCC2)oc2c(-c3ccccc3)cccc12

>  <residual activity>
86.4%

$$$$
>  <Structure>
COc1cccc(-c2cc(=O)c3ccccc3o2)c1N

>  <residual activity>
77.9%

$$$$
>  <Structure>
COc1cc2c(N3CCN(C(=O)Nc4ccc(OC(C)C)cc4)CC3)ncnc2cc1OCCCN1CCCCC1

>  <residual activity>
103%

$$$$
>  <Structure>
O=c1c(-c2ccc(F)cc2)c(-c2ccncc2)[nH]n1-c1ccc(Cl)cc1

>  <residual activity>
102%

$$$$
>  <Structure>
N#Cc1c(NC(=O)c2cccc3ccccc23)sc2c1CCCC2

>  <residual activity>
106%

$$$$
>  <Structure>
CCc1nc(-c2ccc(OC)cc2)[nH]c1-c1ccncc1

>  <residual activity>
104%

$$$$
>  <Structure>
Cc1cc(Nc2nc(-c3ccccc3)nc3ccccc23)n[nH]1

>  <residual activity>
115%

$$$$
